Recorded values, source PubChem BioAssay (NCI).

# System: SR leukemia
# TEST_NAME: NCI-60 one-dose screen, 48 h
# REPORTED_CONDITIONS: 10 µM unless noted
Compounds without any hit were thinned out: in the full panel of roughly 83,000, 20% have a hit. Activity calls are given as the source filed them. Rule for the calls: active = growth percent below 10; inactive = the rest.
Labels: active, inactive

1. COc1ccc(Oc2nc(Nc3ccc(N4CCOCC4)cc3)ncc2NC(=O)c2cccc(C(F)(F)F)c2)cc1	inactive
2. COC1/C=C/OC2(C)Oc3c(C)c(O)c4c(O)c(c(C=NOC(c5ccccc5)c5ccccc5)c(O)c4c3C2=O)NC(=O)/C(C)=C/C=C/C(C)C(O)C(C)C(O)C(C)C(OC(C)=O)C1C (centres undefined)	active
3. CCCCn1c(C(=O)c2c[nH]c3ccccc23)n[nH]c1=S	inactive
4. CCOC(=O)C1=C(C)NC(=O)NC1c1c(Cl)n(-c2ccccc2)c2ccccc12 (centres undefined)	inactive

###

# Test system: SF-539 CNS
# TEST_NAME: NCI-60 one-dose screen, 48 h
# REPORTED_CONDITIONS: 10 µM unless noted
The panel holds about 83,000 compounds, 20% with a hit somewhere; the sample as a whole holds those more often. Active and inactive are the calls of the source. How the source made its calls: active means growth percent below 10; inactive means the rest.
Labels: active, inactive

1. CC(=O)N1N=C(c2ccc(Nc3nc(Nc4ccc(F)cc4)nc(Nc4ccc(F)cc4)n3)cc2)CC1c1ccccc1 (centres undefined)	inactive
2. CN1CCN(CCCN2c3ccccc3Sc3ccc(Cl)cc32)CC1	inactive
3. CN1CCCc2cc(/C=C3\SC(=S)N(C(Cc4ccc(O)cc4)C(=O)O)C3=O)ccc21 (centres undefined)	inactive
4. Cc1ccc(NC(=O)c2sc3nc(C)c(C(=O)c4ccccc4)cc3c2N)cc1	inactive
5. COC(=O)[C@H]1Cc2c([nH]c3ccccc23)[C@@H](c2cccs2)N1	inactive
6. O=C(N=Nc1c(O)[nH]c2ccccc12)Nc1ccc(Br)cc1	inactive
7. CCCn1nc(C(=O)N2CCCCC2)c2c1CCC(N1CCC(c3ccncc3)CC1)C2 (centres undefined)	inactive
8. Cn1ccnc1CN1CCSC(C(=O)Nc2ccccc2)C1 (centres undefined)	inactive
9. C=CCNC(=O)Cc1c(-c2ccc(OC)cc2)oc2c(OC)c3c(c(OC)c12)OCO3	inactive
10. CCNC(=O)Oc1ccc(/C(=C(/C)Cc2ccc(OC)cc2)c2ccc(OCCN(CC)CC)cc2)cc1	inactive
11. CC(C)(C)CC(N)=O	inactive
12. Oc1ccccc1C=Nc1ccc(N2CCN(c3ccccc3)CC2)cc1	inactive
13. N#C/C(=N\Nc1ccc(Cl)cc1)C(=O)Nc1cc(-c2ccccc2)nn1-c1ccccc1	inactive
14. CCCCCC#CC1OC23CCCCC2C(C#N)(C(=N)O3)C1(C#N)C#N (centres undefined)	inactive
15. Brc1ccc(/C=C(/C2=NCCN2)n2ccc3ccccc32)cc1	inactive
16. CCN(CC)CC(=O)Nc1ccc2ncnc(Nc3ccc(Oc4cccc(F)c4)c(Cl)c3)c2c1	inactive
17. Cc1ccc2nc3ccccc3c(NCc3ccc(Cl)cc3)c2c1	inactive
18. CCCCSc1ccc2nc(-c3ccc(OCCCN=C(N)N)cc3)cn2c1	active
19. C=C1C(=O)O[C@H]2[C@H]1CC/C(COC(=O)NCCCCNC(=O)OC/C1=C/CC[C@@]3(C)O[C@H]3[C@H]3OC(=O)C(=C)[C@@H]3CC1)=C\CC[C@@]1(C)O[C@@H]21	active
